Test system: MDA-MB-231
Assay: Cytotoxicity against human MDA-MB-231 cells assessed as inhibition of cell growth incubated for 72 hrs by MTT assay
Assay type: functional, cell-based
Conditions: MDA-MB-231, 72 h
Each entry below carries its reported IC50.
Use µM as the unit, but write only the number.

Endpoint output: IC50 of `CCc1nc2c(C)cc(-c3ccc(CN4CCN(C)CC4)cc3)cn2c1NC(=O)OCc1ccc(F)c(F)c1` . Value?
6.23

IC50 lookup needed for `CCc1nc2c(C)cc(-c3ccc(CN4CCN(C)CC4)cc3)cn2c1NC(=O)OCc1ccc(C(F)(F)F)cc1` , thanks.
4.31

# IC50 lookup, item `CCc1nc2c(C)cc(-c3ccc(CN4CCC(C)CC4)cc3)cn2c1NC(=O)OCc1cc(Cl)cc(Cl)c1`
5.83

Which value of IC50 has been reported for `CCc1nc2c(C)cc(-c3ccc(CN4CCC(O)CC4)cc3)cn2c1NC(=O)OCc1cc(Cl)cc(Cl)c1` in the records?
1.58

* * *

Tested on: MDA-MB-231
Assay: Cytotoxicity against human MDA-MB-231 cells assessed as inhibition of cell growth incubated for 72 hrs by MTT assay
Assay type: functional, cell-based
Conditions: MDA-MB-231, 72 h
Known pIC50 of a selection of compounds
Worth noting: pIC50 values are minus log10 of concentrations stated in mol/L.

CCc1nc2c(C)cc(-c3ccc(CN4CCN(CCO)CC4)cc3)cn2c1NC(=O)OCc1cc(Cl)cc(Cl)c1 | 5.48

Attention now turns to another entry.
Endpoint output: pIC50 of `CCc1nc2c(C)cc(-c3ccc(CN4CCN(CCO)CC4)cc3)cn2c1NC(=O)OCc1ccc(F)c(F)c1` . Value?
5.32

* * *

Target: Autotaxin (Homo sapiens, UniProt Q13822)
Test: Negative allosteric modulation activity against human ATX using FS-3 as substrate preincubated for 45 mins followed by substrate addition and measured every 30 mins by multi-mode microplate reader
Mark criterion met for IC50 under 90 nM, criterion not met if at or over.

Some solved cases for reference:
CCc1nc2c(C)cc(-c3ccc(CN4CCC[C@H]4CO)cc3)cn2c1NC(=O)OCc1cc(Cl)cc(Cl)c1 | criterion met
CCc1nc2c(C)cc(-c3ccc(CN4CCN(C)CC4)cc3)cn2c1NC(=O)OCc1cc(Cl)cc(Cl)c1 | criterion not met
CCc1nc2c(C)cc(-c3ccc(CN4CCN(CCO)CC4)cc3)cn2c1NC(=O)OCc1cc(Cl)cc(Cl)c1 | criterion met
CCc1nc2c(C)cc(-c3ccc(CN4CCCCC4)cc3)cn2c1NC(=O)OCc1cc(Cl)cc(Cl)c1 | criterion not met
CCc1nc2c(C)cc(-c3ccc(CN4CCN(CC)CC4)cc3)cn2c1NC(=O)OCc1ccc(C(F)(F)F)cc1 | criterion not met
CCc1nc2c(C)cc(-c3ccc(CN4CCN(CCO)CC4)cc3)cn2c1NC(=O)OCc1ccc(F)cc1 | criterion met
CCc1nc2c(C)cc(-c3ccc(CN4CCN(CC)CC4)cc3)cn2c1NC(=O)OCc1ccc(F)c(F)c1 | criterion not met
CCc1nc2c(C)cc(-c3ccc(CN4CCN(CCO)CC4)cc3)cn2c1NC(=O)OCc1ccc(F)c(F)c1 | criterion met
CCc1nc2c(C)cc(-c3ccc(CN4CCC[C@H]4CO)cc3)cn2c1NC(=O)OCc1ccc(F)cc1 | criterion met
CCc1nc2c(C)cc(-c3ccc(CNCCO)cc3)cn2c1NC(=O)OCc1cc(Cl)cc(Cl)c1 | criterion met

Identify whether the compound `CCc1nc2c(C)cc(-c3ccc(CN4CCN(C)CC4)cc3)cn2c1NC(=O)OCc1ccc(C(F)(F)F)cc1` records IC50 below 90 nM.
criterion not met

Does `CCc1nc2c(C)cc(-c3ccc(CN4CCOCC4)cc3)cn2c1NC(=O)OCc1ccc(F)cc1` have IC50 strictly under 90 nM?
criterion met

* * *

Test system: NCI-H1581
Assay: Cytotoxicity against human NCI-H1581 cells assessed as inhibition of cell growth incubated for 72 hrs by MTT assay
Type: functional, cell-based
Settings: NCI-H1581, 72 h
# IC50 listing for each entry below
# number only, unit µM dropped from output

Worked cases, IC50 given:
CCc1nc2c(C)cc(-c3ccc(CN4CCN(CCO)CC4)cc3)cn2c1NC(=O)OCc1cc(Cl)cc(Cl)c1 | 4.76
CCc1nc2c(C)cc(-c3ccc(CN4CCC(C)CC4)cc3)cn2c1NC(=O)OCc1cc(Cl)cc(Cl)c1 | 4.04
CCc1nc2c(C)cc(-c3ccc(CN4CCN(CCO)CC4)cc3)cn2c1NC(=O)OCc1ccc(C(F)(F)F)cc1 | 5.67

# ---- query compound ----
Tell me the measured IC50 of `CCc1nc2c(C)cc(-c3ccc(CN4CCC(O)CC4)cc3)cn2c1NC(=O)OCc1cc(Cl)cc(Cl)c1` , please.
4.8

* * *

Test system: A549
Test: Cytotoxicity against human A549 cells assessed as inhibition of cell growth incubated for 72 hrs by MTT assay
Assay type: functional, cell-based
Conditions: A549, 72 h
TEST READOUT: IC50

Reference set (5 entries):
CCc1nc2c(C)cc(-c3ccc(CN4CCN(CCO)CC4)cc3)cn2c1NC(=O)OCc1ccc(F)c(F)c1 | 5.58 µM
CCc1nc2c(C)cc(-c3ccc(CN4CCC[C@H]4CO)cc3)cn2c1NC(=O)OCc1ccc(F)cc1 | > 20 µM
CCc1nc2c(C)cc(-c3ccc(CN4CCN(CCO)CC4)cc3)cn2c1NC(=O)OCc1ccc(F)cc1 | > 20 µM
CCc1nc2c(C)cc(-c3ccc(CN4CCN(C)CC4)cc3)cn2c1NC(=O)OCc1cc(Cl)cc(Cl)c1 | 4.02 µM
CCc1nc2c(C)cc(-c3ccc(CN4CCSCC4)cc3)cn2c1NC(=O)OCc1cc(Cl)cc(Cl)c1 | > 20 µM

# query: IC50 | item `CCc1nc2c(C)cc(-c3ccc(CN4CCOCC4)cc3)cn2c1NC(=O)OCc1ccc(OC)c(Cl)c1` | system: A549
> 20 µM

What value of IC50 on A549 does `CCc1nc2c(C)cc(-c3ccc(CN4CCN(C)CC4)cc3)cn2c1NC(=O)OCc1ccc(F)c(F)c1` have?
> 20 µM

What is its IC50 for A549? Entry: `CCc1nc2c(C)cc(-c3ccc(CN4CCN(CCO)CC4)cc3)cn2c1NC(=O)OCc1ccc(C(F)(F)F)cc1`
5.06 µM

* * *

Test system: A549
Experiment: Cytotoxicity against human A549 cells assessed as inhibition of cell growth incubated for 72 hrs by MTT assay
Assay type: functional, cell-based
Conditions: A549, 72 h
Reported IC50 by item:

Take a look at these entries with their results.
CCc1nc2c(C)cc(-c3ccc(CN4CCC[C@H]4CO)cc3)cn2c1NC(=O)OCc1cc(Cl)cc(Cl)c1 | 5.78 µM
CCc1nc2c(C)cc(-c3ccc(CNCCO)cc3)cn2c1NC(=O)OCc1cc(Cl)cc(Cl)c1 | > 20 µM
CCc1nc2c(C)cc(-c3ccc(CN4CCOCC4)cc3)cn2c1NC(=O)OCc1ccc(F)cc1 | > 20 µM

Now for a further compound.
Lab note: need IC50 with A549 for entry `CCc1nc2c(C)cc(-c3ccc(CN4CCN(CCO)CC4)cc3)cn2c1NC(=O)OCc1cc(Cl)cc(Cl)c1` , please look it up.
6.59 µM

* * *

Biological target: Autotaxin (Homo sapiens, UniProt Q13822)
Test: Negative allosteric modulation activity against human ATX using FS-3 as substrate preincubated for 45 mins followed by substrate addition and measured every 30 mins by multi-mode microplate reader
TEST READOUT: pIC50
Conceptually, pIC50 converts a concentration in mol/L into minus its log10.

CCc1nc2c(C)cc(-c3ccc(CN4CCOCC4)cc3)cn2c1NC(=O)OCc1cc(Cl)cc(Cl)c1 | 6.89
CCc1nc2c(C)cc(-c3ccc(CN4CCC(O)CC4)cc3)cn2c1NC(=O)OCc1cc(Cl)cc(Cl)c1 | 7.77
CCc1nc2c(C)cc(-c3ccc(CN(CCO)CCO)cc3)cn2c1NC(=O)OCc1cc(Cl)cc(Cl)c1 | 7.15
CCc1nc2c(C)cc(-c3ccc(CN4CCC(C)CC4)cc3)cn2c1NC(=O)OCc1cc(Cl)cc(Cl)c1 | 7.62
CCc1nc2c(C)cc(-c3ccc(CN4CCSCC4)cc3)cn2c1NC(=O)OCc1ccc(F)c(F)c1 | 6.54

Now for the compound whose pIC50 we want.
Return reported pIC50; argument: `CCc1nc2c(C)cc(-c3ccc(CN4CCCC4)cc3)cn2c1NC(=O)OCc1cc(Cl)cc(Cl)c1`
6.85

* * *

This listing pairs compounds with measured pIC50.
System: A549
Experiment: Cytotoxicity against human A549 cells assessed as inhibition of cell growth incubated for 72 hrs by MTT assay
Type: functional, cell-based
Settings: A549, 72 h
pIC50: −log10 of the molar value.

O=C(CCN1CCN(C(=O)OCc2cc(Cl)cc(Cl)c2)CC1)c1ccc2[nH]c(=O)oc2c1 | < 4.70
CCc1nc2c(C)cc(N3CCN(CC(=O)N4CC(O)C4)CC3)cn2c1N(C)c1nc(-c2ccc(F)cc2)c(C#N)s1 | < 4.70
CCc1nc2c(C)cc(-c3ccc(CN4CCN(C)CC4)cc3)cn2c1NC(=O)OCc1ccc(C(F)(F)F)cc1 | < 4.70
CCc1nc2c(C)cc(-c3ccc(CN4CCSCC4)cc3)cn2c1NC(=O)OCc1ccc(F)c(F)c1 | < 4.70

Field: next compound
Look up pIC50: `CCc1nc2c(C)cc(-c3ccc(CN4CCC(C)CC4)cc3)cn2c1NC(=O)OCc1cc(Cl)cc(Cl)c1`
5.09
